B1: glmS ribozyme (parent)
chain: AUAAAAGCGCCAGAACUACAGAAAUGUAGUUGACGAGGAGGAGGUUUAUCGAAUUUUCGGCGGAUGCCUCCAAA

Variants of: B1
Assay Text: self-cleavage kobs at 10000 uM GlcN6P; higher = faster cleavage; RNA array
Test Parameters: with glucosamine-6-phosphate
Variants at the floor of the assay were thinned out.
Property: self-cleavage kobs at 10000 uM GlcN6P (s⁻¹)
Use s⁻¹ as the unit, but write only the number.

Req: Quick check: self-cleavage kobs at 10000 uM GlcN6P of G40A C70U ?
Resp: 0.000752

Req: Next: C50G C58A C70U
Resp: 0.000117

Req: Repeat with A14C G38U G63U C68A
Resp: 4.08e-05

Req: Try this variant too: C8U C68G
Resp: 0.000231

Req: Repeat with A12C A15G
Resp: 0.0142

Req: And for A14C A53U ?
Resp: 0.0035

Req: Try this variant too: G32A G66A
Resp: 0.0019

Req: Same thing, different variant: A14U U45A
Resp: 0.0148

Req: Also, U65G C68A please.
Resp: 6.04e-05
